assay method text: Oral bioavailability in BALB/c mouse at 30 mg/kg, administered as single dose
Format: ADME, organism-based
condition: in vivo
observable: bioavailability (%)
Reply with just the number (in %).

# bioavailability lookup, item C1=N/C2=N/c3ccc(OCCN4CCCC4)c(c3)COC/C=C/COCc3cccc(c3)C(=C1)N2 (mixture of isomers) 39

###

assay method text: in vitro
condition: PAMPA
Description: Apparent permeability of compound at 1 uM after 5 hrs by PAMPA assay
observable: Papp at 5 h, 1 µM (×10⁻⁶ cm/s)
Reply with just the number (in ×10⁻⁶ cm/s).

Recorded results for 3 molecules are shown here.
| molecule | unit string | Papp at 5 h, 1 µM |
| --- | --- | --- |
| C1=CCOCc2cc(ccc2OCCN2CCCCC2)Nc2nccc(n2)-c2cccc(c2)COC1 (mixture of isomers) | ×10⁻⁶ cm/s | 3.93 |
| COc1ccc2cc1COCC=CCOCc1cc(ccc1OCCN1CCCC1)Nc1nccc-2n1 (mixture of isomers) | ×10⁻⁶ cm/s | 10.1 |
| C1=N/C2=N/c3ccc(OCCN4CCCC4)c(c3)COC/C=C/COCc3cccc(c3)C(=C1)N2 (mixture of isomers) | ×10⁻⁶ cm/s | 9.3 |

# Papp at 5 h, 1 µM lookup, item CCN(CC)CCOc1ccc2cc1COCC=CCOCc1cccc(c1)-c1ccnc(n1)N2 (mixture of isomers) 15.8
